I'd appreciate it if you could supply pIC50 values for the items below.
measurement_target: wildtype Kras / hSOS1 (Homo sapiens, UniProt P01116)
Construct: made in house; host or cells: E. coli BL21 (DE3)
Sequence (P01116 1-188 isoform P01116-2): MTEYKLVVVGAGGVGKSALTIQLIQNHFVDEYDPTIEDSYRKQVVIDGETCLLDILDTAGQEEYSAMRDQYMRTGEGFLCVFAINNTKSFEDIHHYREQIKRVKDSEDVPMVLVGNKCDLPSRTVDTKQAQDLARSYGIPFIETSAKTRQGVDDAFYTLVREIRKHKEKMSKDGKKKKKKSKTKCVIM
test_description: HTRF assay, wildtype Kras / SOS1 interaction
Assay type: binding
experimental_conditions: compound nos. 401-703; read-out: IC50 against wildtype Kras
pIC50: −log10 of the molar value.

Study these solved cases before continuing.
molecule	pIC50
Nc1nc2c(-c3c(Cl)cc4c(N5CC6CCCC(C5)NC6)nc(OC[C@@]56CCCN5C[C@H](F)C6)nc4c3F)ccc(F)c2s1 (stereo partly shown) [Compound 512]	< 6.30
Nc1nc2c(-c3c(Cl)cc4c(N5CCCC(CO)CC5)nc(OC[C@@]56CCCN5C[C@H](F)C6)nc4c3F)ccc(F)c2s1 (stereo partly shown) [Compound 485]	> 6.30
Nc1nc2c(-c3c(Cl)cc4c(N5CCC[C@@H](N)CC5)nc(OC[C@@]56CCCN5C[C@H](F)C6)nc4c3F)ccc(F)c2s1 [Compound 434]	> 6.30

Dear colleague, could you please provide pIC50 for the molecules listed below?
1. CS(=O)(=O)N1CCCN(c2nc(OC[C@@]34CCCN3C[C@H](F)C4)nc3c(F)c(-c4ccc(F)c5sc(N)nc45)c(Cl)cc23)CC1 [Compound 644]
2. Cc1ncc(COc2nc(N3CCCCCC3)c3cc(Cl)c(-c4cccc5sc(N)nc45)c(F)c3n2)cn1 [Compound 505]
3. Nc1cccc(-c2ccccc2-c2c(Cl)cc3c(N4CCCCCC4)nc(OCC45CCCN4CCC5)nc3c2F)c1 [Compound 666]
4. Nc1cc(-c2ccc3c(N4CC5CCC(C4)N5)nc(OCC45CCCN4CCC5)nc3c2F)c2ccccc2n1 [Compound 641]

["< 6.30", "< 6.30", "< 6.30", "< 6.30"]

###

measurement_target: GST-tagged K-Ras mutant / His-tagged hSOS1 (Homo sapiens)
test_description: HTRF assay, K-Ras mutant / SOS1 interaction
Format: binding
experimental_conditions: compound nos. 401-703; read-out: IC50 against mutant Kras
Can you tell me IC50 for the items I'm about to list?

compound	IC50
CN1CCC[C@H]1COc1nc(N2CCCC(C(N)=O)CC2)c2cc(Cl)c(-c3cccc4sc(N)nc34)c(F)c2n1 (stereo partly drawn) [Compound 581]	< 500 nM
N#Cc1c(N)sc2cccc(-c3c(Cl)cc4c(N5CC6CCC(C5)N6)nc(OC[C@@]56CCCN5C[C@H](F)C6)nc4c3F)c12	< 500 nM

Moving on to another compound below.
Find the recorded IC50 belonging to Oc1cc(-c2ncc3c(N4C[C@H]5CC[C@@H](C4)N5)nc(OC[C@@]45CCCN4C[C@H](F)C5)nc3n2)c2ccccc2c1 and report it.
> 500 nM

###

measurement_target: wildtype Kras / hSOS1 (Homo sapiens)
Construct: made in house; host or cells: E. coli BL21 (DE3)
test_description: HTRF assay, wildtype Kras / SOS1 interaction
Type: binding
experimental_conditions: compound nos. 401-703; read-out: IC50 against wildtype Kras
measure: IC50

Below are worked cases with known answers.
record_smiles	IC50
Cc1ccc2cnn(C#N)c2c1-c1c(Cl)cc2c(N3CC4CCC(C3)N4)nc(OC[C@@]34CCCN3C[C@H](F)C4)nc2c1F	> 500 nM
Fc1c(Br)c(Cl)cc2c(N3CCNCC(F)(F)C3)nc(OCC34CCCN3CCC4)nc12	> 500 nM
N#Cc1c(N)sc2c(F)ccc(-c3c(Cl)cc4c(N5CCNCC(F)(F)C5)nc(OC[C@@]56CCCN5C[C@H](F)C6)nc4c3F)c12	< 500 nM

Attention now shifts to the item below.
Param readout = IC50; param system = wildtype Kras / hSOS1 (Homo sapiens); param query = N#Cc1c(N)sc2c(F)ccc(-c3c(Cl)cc4c(N5CCCNCC5)nc(OC[C@@]56CCCN5C[C@H](F)C6)nc4c3F)c12 ; response: value
> 500 nM

###

measurement_target: GST-tagged K-Ras mutant / His-tagged hSOS1 (Homo sapiens, UniProt P01116)
Sequence (P01116 whole entry G12D, form open): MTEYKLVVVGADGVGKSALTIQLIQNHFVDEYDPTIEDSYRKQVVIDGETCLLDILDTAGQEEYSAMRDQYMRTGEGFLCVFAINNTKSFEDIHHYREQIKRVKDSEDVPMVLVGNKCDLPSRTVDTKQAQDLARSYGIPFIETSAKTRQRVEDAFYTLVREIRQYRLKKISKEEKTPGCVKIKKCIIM
test_description: HTRF assay, K-Ras mutant / SOS1 interaction
Type: binding
experimental_conditions: compound nos. 401-703; read-out: IC50 against mutant Kras
measure: IC50

// known answers, use as guide
compound	measurement_target	IC50
CC1CCCCN(c2nc(OC[C@@H]3CCCN3C)nc3c(F)c(-c4cccc5sc(N)nc45)c(Cl)cc23)C1 (stereo partly drawn)	GST-tagged K-Ras mutant / His-tagged hSOS1 (Homo sapiens, UniProt P01116)	< 500 nM
N#Cc1c(N)sc2c(F)ccc(-c3c(Cl)cc4c(N5CCCS(=O)(=O)CC5)nc(OC[C@@]56CCCN5C[C@H](F)C6)nc4c3F)c12	GST-tagged K-Ras mutant / His-tagged hSOS1 (Homo sapiens, UniProt P01116)	< 500 nM

Please give IC50 for each item listed below.
1. Nc1c(F)ccc(-c2c(Cl)cc3c(N4CC5CCC(C4)N5)nc(OCC45CCCN4CCC5)nc3c2F)c1F
2. Nc1nc2c(-c3c(Cl)cc4c(N5CC6CCC(CC6)C5)nc(OC[C@@]56CCCN5C[C@H](F)C6)nc4c3F)ccc(F)c2s1
3. CN1CCC[C@H]1COc1nc(N2CCCCC(C(N)=O)C2)c2cc(Cl)c(-c3cccc4sc(N)nc34)c(F)c2n1 (stereo partly drawn) [Compound 700]
4. Nc1nc2c(-c3c(Cl)cc4c(N5CC6CCC(C5)N6)nc(OCC5(CN6CC[C@@H](F)C6)CC5)nc4c3F)ccc(F)c2s1

> 500 nM
< 500 nM
< 500 nM
< 500 nM

###

measurement_target: GST-tagged K-Ras mutant / His-tagged hSOS1 (Homo sapiens)
test_description: HTRF assay, K-Ras mutant / SOS1 interaction
Type: binding
experimental_conditions: compound nos. 102-196, general methodology of example 5; read-out: IC50 against mutant Kras
measure: IC50

The following molecules have reported results that may help.
molecule	IC50
Cc1ccc2cnn(C)c2c1-c1c(Cl)cc2c(N3CCNCC(F)(F)C3)nc(OC[C@@]34CCCN3C[C@H](F)C4)nc2c1F [Compound 175]	< 500 nM
CN1CCC[C@H]1COc1nc(N2CCN(C(=O)CN)CC(F)(F)C2)c2cc(Cl)c(-c3cccc4sc(N)nc34)c(F)c2n1 [Compound 141]	> 500 nM
Cc1ccnc(C(C)C)c1-n1c(=O)nc(N2CCNCC(F)(F)C2)c2cc(F)c(-c3cccc4sc(N)nc34)nc21 [Compound 111]	> 500 nM
CN1CCC[C@H]1COc1nc(N2CCNCC(C)(C)C2)c2cc(Cl)c(-c3cccc4sc(N)nc34)c(F)c2n1 [Compound 118]	> 500 nM
Nc1nc2c(-c3c(Cl)cc4c(N5CCNCC(F)C5)nc(OCC56CCCN5CCC6)nc4c3F)ccc(F)c2s1 (stereo not shown) [Compound 163]	< 500 nM

Give one value of IC50 per listed molecule.
1. CN1CCC[C@H]1COc1nc(N2CCNCC(F)(F)C2)c2cc(Cl)c(-c3cccc4ccc(N)nc34)c(F)c2n1 [Compound 183]
2. Cc1ccnc(C(C)C)c1-n1c(=O)nc(N2CCNCC(F)(F)C2)c2cc(F)c(-c3cc(O)cc4ccccc34)nc21 [Compound 196]

["> 500 nM", "> 500 nM"]

###

measurement_target: GST-tagged K-Ras mutant / His-tagged hSOS1 (Homo sapiens, UniProt P01116)
test_description: HTRF assay, K-Ras mutant / SOS1 interaction
Assay type: binding
experimental_conditions: compound nos. 401-703; read-out: IC50 against mutant Kras
pIC50: −log10 of the molar value.
Could you please report measured pIC50 for the items listed next?

Reference set (3 entries):
compound	measurement_target	assay_value
Cc1ccc2[nH]nc(N)c2c1-c1ccc2c(N3CC4CCC(C3)N4)nc(OC[C@@]34CCCN3C[C@H](F)C4)nc2c1F	GST-tagged K-Ras mutant / His-tagged hSOS1 (Homo sapiens, UniProt P01116)	< 6.30
CN1CCC[C@H]1COc1nc(N2CCCCC(C(N)=O)C2)c2cc(Cl)c(-c3cccc4sc(N)nc34)c(F)c2n1 (stereo partly shown) [Compound 455]	GST-tagged K-Ras mutant / His-tagged hSOS1 (Homo sapiens, UniProt P01116)	> 6.30
Cc1ccc2sc(N)nc2c1-c1c(Cl)cc2c(N3CC4CCC(C3)N4)nc(OCC34CCCN3CCC4)nc2c1F	GST-tagged K-Ras mutant / His-tagged hSOS1 (Homo sapiens, UniProt P01116)	> 6.30

List the reported pIC50 of each compound below.
1. Cc1ccc2oc(N)nc2c1-c1c(Cl)cc2c(N3CCNCC(F)(F)C3)nc(OC[C@@]34CCCN3C[C@H](F)C4)nc2c1F
2. Fc1c(-c2cccc(-c3ccccc3)c2)c(Cl)cc2c(N3CCCCCC3)nc(OCC34CCCN3CCC4)nc12
3. Nc1nc2c(-c3ccc4c(N5CC6CCC(C5)N6)nc(OCC56CCCN5CCC6)nc4n3)ccc(F)c2s1

1: > 6.30; 2: < 6.30; 3: < 6.30

What does the record list as pIC50 for Cc1ccnc(C(C)C)c1-n1c(=O)nc(N2CC3CCC(C2)N3)c2cc(F)c(-c3cc(O)cc4ccccc34)nc21 ?
< 6.30

The reported measurements were obtained from patent US20240254129A1.
